Exercise: state measured Transformation rate with peptide addition (1 µM) for each of the binders provided.
system: T1, transcriptional regulator (Rgg) STER-0316 (Streptococcus thermophilus LMD-9)
T1 chain: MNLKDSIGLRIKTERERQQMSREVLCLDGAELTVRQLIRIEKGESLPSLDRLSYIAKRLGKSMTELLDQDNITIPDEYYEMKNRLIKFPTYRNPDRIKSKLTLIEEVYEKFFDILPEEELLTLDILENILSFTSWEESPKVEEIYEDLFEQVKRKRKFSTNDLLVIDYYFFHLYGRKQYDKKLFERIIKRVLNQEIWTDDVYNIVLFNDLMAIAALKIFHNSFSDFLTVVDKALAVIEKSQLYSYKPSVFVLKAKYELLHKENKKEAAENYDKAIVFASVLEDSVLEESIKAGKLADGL
protocolSummary: cell-based or functional assay

Check out these entries, answers already filled in.
PYFAGC [synthetic peptide PYFAGC]
< 1e-08
PYFAGCL [synthetic peptide PYFAGCL]
0.00478
LPYFAGCL [synthetic peptide LPYFAGCL]
0.00318
PYFAG [synthetic peptide PYFAG]
< 1e-08
LPYFAGC [synthetic peptide LPYFAGC]
< 1e-08

Give one value of Transformation rate with peptide addition (1 µM) per listed binder.
1. ILPYFAGC [synthetic peptide ILPYFAGC]
2. AILPYFAGC [synthetic peptide AILPYFAGC]
3. ILPYFAG [synthetic peptide ILPYFAG]

Reply:
["< 1e-08", "< 1e-08", "< 1e-08"]

Parameter requested: Transformation rate with peptide addition (1 µM). Apply to each item below.
1. AILPYFAGCL [synthetic peptide AILPYFAGCL]
2. ILPYFAGCL [synthetic peptide ILPYFAGCL]

Reply:
1. 0.00221
2. 0.00342
